system: NCI-H2461 (Mesothelioma); test: combination Emax (second highest fraction inhibited in the dose matrix, 72 h); higher = more inhibition; extreme values may be limits of the assay
Readout: combination Emax
Form rule: numeric answer, no unit written next to it.

// field: combination Emax; key: Cc1c2c(nn1C)CSCc1cc(n(C)n1)CSc1cc(c3ccccc3c1)OCCCc1c(C(=O)O)n(C)c3c-2c(Cl)ccc13 [AZD5991] + CN(C)CCCOc1ccc(-c2ccc3ncc4c(c3c2)n(C2CCOCC2)c(=O)n4C)cn1 [AZD0156] (first compound max 1 µM, 7x7, partner max 1 µM) ; value = 0.307

// field: combination Emax; key: CC1(C)CCC(CN2CCN(c3ccc(C(=O)NS(=O)(=O)c4ccc(NCC5CCOCC5)c([N+](=O)[O-])c4)c(Oc4cnc5[nH]ccc5c4)c3)CC2)=C(c2ccc(Cl)cc2)C1 [Venetoclax] + CS(=O)(=O)CCNCc1ccc(-c2ccc3ncnc(Nc4ccc(OCc5cccc(F)c5)c(Cl)c4)c3c2)o1 [Lapatinib] (first compound max 1 µM, 7x7, partner max 10 µM) ; value = 0.268

// field: combination Emax; key: CN(C)CCCOc1ccc(-c2ccc3ncc4c(c3c2)n(C2CCOCC2)c(=O)n4C)cn1 [AZD0156] + C[C@@H]1COCCN1C2=NC(=NC(=C2)C3(CC3)[S@](=N)(=O)C)C4=C5C=CNC5=NC=C4 [AZD6738] (first compound max 1 µM, 7x7, partner max 10 µM) ; value = 0.71

// field: combination Emax; key: CS(=O)(=O)CCNCc1ccc(-c2ccc3ncnc(Nc4ccc(OCc5cccc(F)c5)c(Cl)c4)c3c2)o1 [Lapatinib] + NC1(c2ccc(-c3nc4ccn5c(=O)[nH]nc5c4cc3-c3ccccc3)cc2)CCC1 [MK-2206] (first compound max 10 µM, 7x7, partner max 10 µM) ; value = 0.495

// field: combination Emax; key: Cn1cnc2c(F)c(Nc3ccc(Br)cc3Cl)c(C(=O)NOCCO)cc21 [Selumetinib] + C[C@@H]1COCCN1C2=NC(=NC(=C2)C3(CC3)[S@](=N)(=O)C)C4=C5C=CNC5=NC=C4 [AZD6738] (first compound max 10 µM, 7x7, partner max 10 µM) ; value = 0.571

// field: combination Emax; key: COc1cccc2c1C(=O)c1c(O)c3c(c(O)c1C2=O)C[C@@](O)(C(=O)CO)C[C@@H]3O[C@H]1C[C@H](N)[C@H](O)[C@H](C)O1 [Doxorubicin] + Cc1cc2ncnn2cc1Nc1ncc2c(n1)n(C1CCOCC1)c(=O)n2C [AZD7648] (first compound max 1 µM, 7x7, partner max 10 µM) ; value = 0.867

// field: combination Emax; key: N#Cc1cnc(Nc2cc(NC[C@H]3CNCCO3)c(C(F)(F)F)cn2)cn1 [SRA737] + C=CCn1c(=O)c2cnc(Nc3ccc(N4CCN(C)CC4)cc3)nc2n1-c1cccc(C(C)(C)O)n1 [AZD1775] (first compound max 10 µM, partner max 1 µM) ; value = 0.709

// field: combination Emax; key: Cc1c2c(nn1C)CSCc1cc(n(C)n1)CSc1cc(c3ccccc3c1)OCCCc1c(C(=O)O)n(C)c3c-2c(Cl)ccc13 [AZD5991] + C1CN(CCC1(C(=O)N[C@@H](CCO)C2=CC=C(C=C2)Cl)N)C3=NC=NC4=C3C=CN4 [Capivasertib] (first compound max 1 µM, 7x7, partner max 3 µM) ; value = 0.464

// field: combination Emax; key: COc1nnc2ccc(N3CCC(c4ccc(OCCN5CCN(C)C(=O)[C@H]5C)cc4)CC3)nn12 [AZD5153] + Cn1cnc2c(F)c(Nc3ccc(Br)cc3Cl)c(C(=O)NOCCO)cc21 [Selumetinib] (first compound max 1 µM, 7x7, partner max 10 µM) ; value = 0.501

// field: combination Emax; key: Cc1nc(Nc2ncc(C(=O)Nc3c(C)cccc3Cl)s2)cc(N2CCN(CCO)CC2)n1 [Dasatinib] + CC(=O)Nc1cccc(-n2c(=O)n(C3CC3)c(=O)c3c(Nc4ccc(I)cc4F)n(C)c(=O)c(C)c32)c1 [Trametinib] (first compound max 2 µM, 7x7, partner max 1 µM) ; value = 0.431

// field: combination Emax; key: CC1(C)CCC(CN2CCN(c3ccc(C(=O)NS(=O)(=O)c4ccc(NCC5CCOCC5)c([N+](=O)[O-])c4)c(Oc4cnc5[nH]ccc5c4)c3)CC2)=C(c2ccc(Cl)cc2)C1 [Venetoclax] + C1CN(CCC1(C(=O)N[C@@H](CCO)C2=CC=C(C=C2)Cl)N)C3=NC=NC4=C3C=CN4 [Capivasertib] (first compound max 1 µM, 7x7, partner max 3 µM) ; value = 0.528

// field: combination Emax; key: Cc1c2c(nn1C)CSCc1cc(n(C)n1)CSc1cc(c3ccccc3c1)OCCCc1c(C(=O)O)n(C)c3c-2c(Cl)ccc13 [AZD5991] + C[C@@H]1COCCN1C2=NC(=NC(=C2)C3(CC3)[S@](=N)(=O)C)C4=C5C=CNC5=NC=C4 [AZD6738] (first compound max 1 µM, 7x7, partner max 10 µM) ; value = 0.765

// field: combination Emax; key: CC1(C)CCC(CN2CCN(c3ccc(C(=O)NS(=O)(=O)c4ccc(NCC5CCOCC5)c([N+](=O)[O-])c4)c(Oc4cnc5[nH]ccc5c4)c3)CC2)=C(c2ccc(Cl)cc2)C1 [Venetoclax] + COc1cc(Nc2ncc3c(n2)-c2ccc(Cl)cc2C(c2c(F)cccc2OC)=NC3)ccc1C(=O)O [Alisertib] (first compound max 1 µM, 7x7, partner max 10 µM) ; value = 0.459

* * *

tested on: SW1271 (Small Cell Lung Carcinoma); assay: Bliss excess, mean over the matrix (fraction); higher = more synergy
Readout: Bliss excess

// field: Bliss excess; key: N#Cc1cnc(Nc2cc(NC[C@H]3CNCCO3)c(C(F)(F)F)cn2)cn1 [SRA737] + O=c1[nH]cc(F)c(=O)[nH]1 [5-Fluorouracil] (first compound max 10 µM, 7x7, partner max 20 µM) ; value = -0.0472

// field: Bliss excess; key: Cn1cnc2c(F)c(Nc3ccc(Br)cc3Cl)c(C(=O)NOCCO)cc21 [Selumetinib] + C=CCn1c(=O)c2cnc(Nc3ccc(N4CCN(C)CC4)cc3)nc2n1-c1cccc(C(C)(C)O)n1 [AZD1775] (first compound max 10 µM, partner max 1 µM) ; value = -0.0806

// field: Bliss excess; key: Cc1c2c(nn1C)CSCc1cc(n(C)n1)CSc1cc(c3ccccc3c1)OCCCc1c(C(=O)O)n(C)c3c-2c(Cl)ccc13 [AZD5991] + CS(=O)(=O)CCNCc1ccc(-c2ccc3ncnc(Nc4ccc(OCc5cccc(F)c5)c(Cl)c4)c3c2)o1 [Lapatinib] (first compound max 1 µM, 7x7, partner max 10 µM) ; value = -0.0749

// field: Bliss excess; key: Cc1c2c(nn1C)CSCc1cc(n(C)n1)CSc1cc(c3ccccc3c1)OCCCc1c(C(=O)O)n(C)c3c-2c(Cl)ccc13 [AZD5991] + CN(C)CCCOc1ccc(-c2ccc3ncc4c(c3c2)n(C2CCOCC2)c(=O)n4C)cn1 [AZD0156] (first compound max 1 µM, 7x7, partner max 1 µM) ; value = 0.0034

* * *

tested on: OC-314 (Ovarian Carcinoma); test: combination Emax (second highest fraction inhibited in the dose matrix, 72 h); higher = more inhibition; extreme values may be limits of the assay
Readout: combination Emax
Form rule: numeric answer, no unit written next to it.

// field: combination Emax; key: COc1cc2c(cc1OCCCCCOc1cc3c(cc1OC)C(=O)N1C=C(C)C[C@H]1C=N3)N=C[C@@H]1CC(C)=CN1C2=O [SG3199] + O=C(c1cc(Cc2n[nH]c(=O)c3ccccc23)ccc1F)N1CCN(C(=O)C2CC2)CC1 [Olaparib] (first compound max 0.001 µM, 7x7, partner max 10 µM) ; value = 0.205

// field: combination Emax; key: CN(C)CCCOc1ccc(-c2ccc3ncc4c(c3c2)n(C2CCOCC2)c(=O)n4C)cn1 [AZD0156] + CCN(CCO)CCCOc1ccc2c(Nc3cc(CC(=O)Nc4cccc(F)c4)[nH]n3)ncnc2c1 [AZD2811] (first compound max 1 µM, 7x7, partner max 1 µM) ; value = 0.312

* * *

system: HARA (Squamous Cell Lung Carcinoma); assay: Bliss excess, mean over the matrix (fraction); higher = more synergy
What Bliss excess was measured for each of the following?
Form rule: numeric answer, no unit written next to it.

// field: Bliss excess; key: Cc1cc2ncnn2cc1Nc1ncc2c(n1)n(C1CCOCC1)c(=O)n2C [AZD7648] + CN(C)CCCOc1ccc(-c2ccc3ncc4c(c3c2)n(C2CCOCC2)c(=O)n4C)cn1 [AZD0156] (first compound max 10 µM, 7x7, partner max 1 µM) ; value = 0.0352

// field: Bliss excess; key: Cc1cc2ncnn2cc1Nc1ncc2c(n1)n(C1CCOCC1)c(=O)n2C [AZD7648] + CCN(CCO)CCCOc1ccc2c(Nc3cc(CC(=O)Nc4cccc(F)c4)[nH]n3)ncnc2c1 [AZD2811] (first compound max 10 µM, 7x7, partner max 1 µM) ; value = 0.017

// field: Bliss excess; key: N#Cc1cnc(Nc2cc(NC[C@H]3CNCCO3)c(C(F)(F)F)cn2)cn1 [SRA737] + Nc1ccn([C@@H]2O[C@H](CO)[C@@H](O)C2(F)F)c(=O)n1 [Gemcitabine] (first compound max 10 µM, 7x7, partner max 0.3 µM) ; value = -0.0013

// field: Bliss excess; key: CCc1c2c(nc3ccc(O)cc13)-c1cc3c(c(=O)n1C2)COC(=O)[C@]3(O)CC [SN-38] + CN(C)CCCOc1ccc(-c2ccc3ncc4c(c3c2)n(C2CCOCC2)c(=O)n4C)cn1 [AZD0156] (first compound max 0.3 µM, 7x7, partner max 1 µM) ; value = 0.112

// field: Bliss excess; key: C[C@@H](Nc1cc(F)cc(F)c1)c1cc(C(=O)N(C)C)cc2c(=O)cc(N3CCOCC3)oc12 [AZD8186] + C1CN(CCC1(C(=O)N[C@@H](CCO)C2=CC=C(C=C2)Cl)N)C3=NC=NC4=C3C=CN4 [AZD5363] (first compound max 10 µM, 7x7, partner max 10 µM) ; value = -0.0301

// field: Bliss excess; key: C[C@@H](Oc1cc(-c2cnn(C3CCNCC3)c2)cnc1N)c1c(Cl)ccc(F)c1Cl [Crizotinib] + Cn1cnc2c(F)c(Nc3ccc(Br)cc3Cl)c(C(=O)NOCCO)cc21 [Selumetinib] (first compound max 10 µM, 7x7, partner max 10 µM) ; value = -0.0366

// field: Bliss excess; key: CS(=O)(=O)CCNCc1ccc(-c2ccc3ncnc(Nc4ccc(OCc5cccc(F)c5)c(Cl)c4)c3c2)o1 [Lapatinib] + C[C@@H](Oc1cc(-c2cnn(C3CCNCC3)c2)cnc1N)c1c(Cl)ccc(F)c1Cl [Crizotinib] (first compound max 10 µM, 7x7, partner max 10 µM) ; value = -0.0259

// field: Bliss excess; key: CS(=O)(=O)CCNCc1ccc(-c2ccc3ncnc(Nc4ccc(OCc5cccc(F)c5)c(Cl)c4)c3c2)o1 [Lapatinib] + Cn1cnc2c(F)c(Nc3ccc(Br)cc3Cl)c(C(=O)NOCCO)cc21 [Selumetinib] (first compound max 10 µM, 7x7, partner max 10 µM) ; value = -0.0257
